- test_system: LmjIPCS (inositol phosphorylceramide synthase from L. major) (Leishmania major)
- protocol_text: biochemical
- Assay type: biochemical
- assay_conditions: read-out: 20mM inhibition LmjIPCS
# key: entry, value: inhibition at 20000 µM
outcome_measure: inhibition at 20000 µM

| compound | outcome_measure | value_reported |
| --- | --- | --- |
| CCCCCC1C(=O)CCC1CC(=O)OC (centres unmarked) [DIHYDROJASMONIC ACID, METHYL ESTER] | inhibition at 20000 µM | -2% |
| CCOC(=O)[C@H](CCc1ccccc1)N[C@@H](C)C(=O)N1[C@H](C(=O)O)C[C@H]2CCCC[C@@H]21 | inhibition at 20000 µM | 7.54% |
| OCC(O)CN1CCN(c2ccccc2)CC1 (centres unmarked) | inhibition at 20000 µM | 18% |
| CC(=O)OCC(=O)[C@@]1(O)CC[C@H]2[C@@H]3CCC4=CC(=O)CC[C@]4(C)[C@@]3(F)[C@@H](O)C[C@@]21C [FLUDROCORTISONE ACETATE] | inhibition at 20000 µM | 4.65% |
| O=C1c2ccccc2-c2cccc3cccc1c23 | inhibition at 20000 µM | 16% |
| OC[C@@H]1CCCN2CCCC[C@H]12 | inhibition at 20000 µM | 11% |
| CC(C)=CCC1=C(O)C(=O)c2ccccc2C1=O | inhibition at 20000 µM | 5.55% |
| CC(=O)OC/C=C(C)/C=C/C=C(C)/C=C/C1=C(C)CCCC1(C)C [RETINYL ACETATE] | inhibition at 20000 µM | 9% |

---

Catalogue of inhibition readings, one per entry.
- test_system: UniProtKB E9AFX2
- protocol_text: biochemical
- Type: biochemical
- Set-up: dose or concentration left out as unconfirmed
- assay_conditions: read-out: inhibition LmjIPCS
outcome_measure: inhibition (%)

| molecule | value_reported |
| --- | --- |
| O=C(O)c1cc(/N=N/c2ccc(S(=O)(=O)Nc3ccccn3)cc2)ccc1O [SULFASALAZINE] | 1.8 |
| CC1=C(CC(=O)O)c2cc(F)ccc2/C1=C\c1ccc([S+](C)[O-])cc1 (stereo not drawn) | 12 |
| CCCCC1=NC2(CCCC2)C(=O)N1Cc1ccc(-c2ccccc2-c2nnn[nH]2)cc1 [IRBESARTAN] | 1 |

---

- test_system: LmjIPCS (inositol phosphorylceramide synthase from L. major) (Leishmania major, UniProt E9AFX2)
- Sequence (E9AFX2 whole entry): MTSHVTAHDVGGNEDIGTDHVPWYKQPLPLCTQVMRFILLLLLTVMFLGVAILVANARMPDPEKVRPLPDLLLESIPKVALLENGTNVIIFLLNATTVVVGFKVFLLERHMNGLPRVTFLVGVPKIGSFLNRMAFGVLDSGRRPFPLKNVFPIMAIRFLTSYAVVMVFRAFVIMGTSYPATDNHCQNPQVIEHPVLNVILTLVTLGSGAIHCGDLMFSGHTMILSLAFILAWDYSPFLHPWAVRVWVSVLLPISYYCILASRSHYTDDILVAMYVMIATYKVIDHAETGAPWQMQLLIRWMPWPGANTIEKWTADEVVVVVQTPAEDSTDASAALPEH
- protocol_text: biochemical
- Format: biochemical
- assay_conditions: read-out: 20mM inhibition LmjIPCS

| molecule | inhibition at 20000 µM |
| --- | --- |
| CC1(C)O[C@@H]2C[C@H]3[C@@H]4CCC5=CC(=O)CC[C@]5(C)[C@@]4(F)[C@@H](O)C[C@]3(C)[C@]2(C(=O)CCl)O1 [HALCINONIDE] | 20% |
| CC[N+](CC)(CC)CCOc1cccc(OCC[N+](CC)(CC)CC)c1OCC[N+](CC)(CC)CC [GALLAMINE TRIETHIODIDE] | -1.76% |
| CN(C)CCC(c1ccc(Br)cc1)c1ccccn1 (stereo not drawn) | 14% |
| c1ccc(CC2=NCCN2)cc1 | 2.77% |
| Nc1ccc(S(=O)(=O)Nc2ccccn2)cc1 | -1.38% |
| CC(Cc1ccc(O)cc1)NCC(O)c1cc(O)cc(O)c1 (stereo not drawn) | 15% |
| CC(=O)Oc1c(C)c(C)c2c(c1C)CCC(C)(CCC[C@H](C)CCC[C@H](C)CCCC(C)C)O2 (stereo partly drawn) [alpha-TOCOPHERYL ACETATE] | -0.425% |
| CC(=O)N[C@@H](Cc1c[nH]c2ccccc12)C(=O)O | -17% |
| Cn1c(=O)[nH]c(=O)c2[nH]cnc21 | 12% |
| CNC(=O)Oc1ccc2c(c1)[C@]1(C)CCN(C)[C@@H]1N2C | 15% |
| C1CCc2nnnn2CC1 | 16% |
| OC(CCN1CCCC1)(c1ccccc1)C1CCCCC1 (stereo not drawn) | 22% |

---

- test_system: LmjIPCS (inositol phosphorylceramide synthase from L. major) (Leishmania major, UniProt E9AFX2)
- protocol_text: biochemical
- Assay type: biochemical

| molecule | result_unit | 20mM inhibition LmjIPCS |
| --- | --- | --- |
| CN1CCCN=C1COC(=O)C(O)(c1ccccc1)C1CCCCC1 (stereo not drawn) | % | 53 |
| CCN(CC)C(C)CN1c2ccccc2Sc2ccccc21 (stereo not drawn) | % | 63 |
| C[C@]12CCC3c4ccc(OS(=O)(=O)[O-])cc4CCC3C1CC[C@H]2O.[Na+] (stereo partly drawn) [ESTRADIOL-3-SULFATE, SODIUM SALT] | % | 5.4 |
| CCCCOc1ccc(C(=O)CCN2CCCCC2)cc1 | % | 61 |
| O=C1OC(=O)[C@H]2[C@@H]1[C@@H]1CC[C@H]2O1 | % | 1.76 |
| NC[C@H]1O[C@H](O[C@H]2[C@H](O)[C@@H](O[C@H]3O[C@H](CO)[C@@H](O)[C@H](N)[C@H]3O)[C@H](N)C[C@@H]2N)[C@H](O)[C@@H](O)[C@@H]1O | % | 26 |
| Cc1ccc(/N=C/N(C)/C=N/c2ccc(C)cc2C)c(C)c1 | % | 55 |
| Oc1c(Cl)cc(Cl)cc1Sc1cc(Cl)cc(Cl)c1O | % | 41 |
| COc1cc2c(cc1O)CCNC2C (stereo not drawn) | % | 12 |

---

- test_system: LmjIPCS (inositol phosphorylceramide synthase from L. major) (Leishmania major)
- protocol_text: biochemical
- Format: biochemical
- Parameters: dose or concentration left out as unconfirmed
- assay_conditions: screening of NINDS set, sheet Screen 1; read-out: inhibition LmjIPCS
Where a SMILES comes first, the peptide text is derived from it.

| molecule | test_system | inhibition / % |
| --- | --- | --- |
| Cc1ccccc1OCC(O)CO (centres unmarked) | LmjIPCS (inositol phosphorylceramide synthase from L. major) (Leishmania major) | 3.35 |
| CC1CC(OC(=O)C(O)c2ccccc2)CC(C)(C)N1C (centres unmarked) | LmjIPCS (inositol phosphorylceramide synthase from L. major) (Leishmania major) | 8 |
| COC(=O)[C@H](Cc1ccccc1)NC(=O)[C@@H](N)CC(=O)O (H-Asp-Phe-OMe) | LmjIPCS (inositol phosphorylceramide synthase from L. major) (Leishmania major) | 10 |
| O=C(O)c1cc2ccccc2[nH]1 | LmjIPCS (inositol phosphorylceramide synthase from L. major) (Leishmania major) | 8 |
| COc1ccc2cc([C@H](C)CO)ccc2c1 | LmjIPCS (inositol phosphorylceramide synthase from L. major) (Leishmania major) | 4.4 |
| Cn1c(=O)[nH]c2nc[nH]c2c1=O | LmjIPCS (inositol phosphorylceramide synthase from L. major) (Leishmania major) | 11 |
| CCCCCCOc1ccccc1C(N)=O [EXALAMIDE] | LmjIPCS (inositol phosphorylceramide synthase from L. major) (Leishmania major) | 8 |
| COc1ccc(C2C(=O)c3ccccc3C2=O)cc1 | LmjIPCS (inositol phosphorylceramide synthase from L. major) (Leishmania major) | 10 |
| C[C@](N)(Cc1ccc(O)c(O)c1)C(=O)O | LmjIPCS (inositol phosphorylceramide synthase from L. major) (Leishmania major) | 8 |
| CCCc1cc(C(N)=S)ccn1 [PROTHIONAMIDE] | LmjIPCS (inositol phosphorylceramide synthase from L. major) (Leishmania major) | 9 |
| CCCCN1CCCCC1C(=O)Nc1c(C)cccc1C (centres unmarked) | LmjIPCS (inositol phosphorylceramide synthase from L. major) (Leishmania major) | 5.35 |
| CN(C)CCCO[C@@H]1[C@H]2OC(C)(C)O[C@H]2O[C@@H]1[C@H](O)CO | LmjIPCS (inositol phosphorylceramide synthase from L. major) (Leishmania major) | 4 |
| Cc1nc(C)c(Cl)c(O)c1Cl | LmjIPCS (inositol phosphorylceramide synthase from L. major) (Leishmania major) | 7 |
| CCCOc1ccccc1-c1nc2nn[nH]c2c(=O)[nH]1 | LmjIPCS (inositol phosphorylceramide synthase from L. major) (Leishmania major) | 7 |
| CCC(C(N)=O)c1ccccc1 (centres unmarked) [FENBUTYRAMIDE] | LmjIPCS (inositol phosphorylceramide synthase from L. major) (Leishmania major) | 9 |
| S=c1[nH]cnc2nc[nH]c12 | LmjIPCS (inositol phosphorylceramide synthase from L. major) (Leishmania major) | 6 |
| CC(C)(C)NCC(O)COc1cccc2c1CC(O)C(O)C2 (centres unmarked) | LmjIPCS (inositol phosphorylceramide synthase from L. major) (Leishmania major) | 9 |
| CC(=O)NCCCCCC(=O)O | LmjIPCS (inositol phosphorylceramide synthase from L. major) (Leishmania major) | 6 |
| CCC1(C)CC(=O)NC1=O (centres unmarked) [ETHOSUXIMIDE] | LmjIPCS (inositol phosphorylceramide synthase from L. major) (Leishmania major) | 6 |
| CC(C(=O)O)c1ccc2c(c1)[nH]c1ccc(Cl)cc12 (centres unmarked) | LmjIPCS (inositol phosphorylceramide synthase from L. major) (Leishmania major) | 7 |
